- assay-target: norepinephrine transporter (NET) (Homo sapiens, UniProt P23975)
- Construct: expressed in transfected cells; host or cells: HEK-293
- Sequence (P23975 whole entry, species assumed): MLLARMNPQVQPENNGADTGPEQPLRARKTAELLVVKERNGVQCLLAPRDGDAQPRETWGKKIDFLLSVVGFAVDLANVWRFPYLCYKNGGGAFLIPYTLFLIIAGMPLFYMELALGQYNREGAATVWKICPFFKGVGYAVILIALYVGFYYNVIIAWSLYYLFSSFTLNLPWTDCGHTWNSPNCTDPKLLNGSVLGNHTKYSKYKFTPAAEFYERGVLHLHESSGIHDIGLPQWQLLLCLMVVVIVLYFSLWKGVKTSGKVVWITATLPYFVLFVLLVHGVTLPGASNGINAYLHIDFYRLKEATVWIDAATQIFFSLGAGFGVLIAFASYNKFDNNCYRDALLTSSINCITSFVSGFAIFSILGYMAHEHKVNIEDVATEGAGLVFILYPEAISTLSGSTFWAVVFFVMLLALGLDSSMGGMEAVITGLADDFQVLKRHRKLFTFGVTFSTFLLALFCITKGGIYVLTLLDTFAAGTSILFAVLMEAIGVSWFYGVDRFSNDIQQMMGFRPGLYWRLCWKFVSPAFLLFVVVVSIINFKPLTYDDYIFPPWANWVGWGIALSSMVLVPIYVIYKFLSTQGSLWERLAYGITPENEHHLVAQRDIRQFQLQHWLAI
- protocol: Norepinephrine reuptake inhibition, [3H]-NE, HEK-293 cells transfected with NE transporter cDNA
- Type: cell-based
- measurement-context: compound 1 μM; [3H]-NE; relative to control without compound = 100%; lower value = more inhibition
This section presents compounds with their documented Triple reuptake inhibition (Ratio %) NET values.
Numeric answer only, unit % assumed.

- compound: "CCCCOc1ccc(S(=O)(=O)NCCCN2CCN(Cc3ccccc3)CC2)cc1 [Example 27]"
  reported-endpoint: "Triple reuptake inhibition (Ratio %) NET"
  numeric-readout: 36.89
- compound: "CCCCOc1ccc(S(=O)(=O)NCCCN2CCC(Cc3ccccc3)CC2)nc1 [Example 35]"
  reported-endpoint: "Triple reuptake inhibition (Ratio %) NET"
  numeric-readout: 51.99
- compound: "O=S(=O)(NCCCN1CCN(c2ccc(Cl)cc2)CC1)c1cccc2ccccc12 [Example 71]"
  reported-endpoint: "Triple reuptake inhibition (Ratio %) NET"
  numeric-readout: 64.45
- compound: "CCCCOc1ccc(S(=O)(=O)NCCCN2CCC(Cc3ccc(F)cc3)CC2)cc1 [Example 32]"
  reported-endpoint: "Triple reuptake inhibition (Ratio %) NET"
  numeric-readout: 20.42

Reported Triple reuptake inhibition (Ratio %) NET for CCCCOc1ccc(S(=O)(=O)NCCCN2CCN(CC3CCOCC3)CC2)cc1 [Example 25] was 102.91

Reported Triple reuptake inhibition (Ratio %) NET for CCCCOc1ccc(S(=O)(=O)NCCCN2CCN(c3ccc(Cl)c(Cl)c3)CC2)cc1 [Example 23] was 83.63

Reported Triple reuptake inhibition (Ratio %) NET for O=S(=O)(NCCCN1CCN(c2ccc(Cl)cc2)CC1)c1ccc2ccccc2c1 [Example 70] was 87.27

Reported Triple reuptake inhibition (Ratio %) NET for CCCCOc1ccc(S(=O)(=O)NCCCN2CCC(Cc3ccc(Cl)c(Cl)c3)CC2)cc1 [Example 20] was 30.29

----------
- assay-target: dopamine transporter (DAT) (Homo sapiens, UniProt Q01959)
- Construct: expressed in transfected cells; host or cells: HEK-293
- Sequence (Q01959 whole entry, species assumed): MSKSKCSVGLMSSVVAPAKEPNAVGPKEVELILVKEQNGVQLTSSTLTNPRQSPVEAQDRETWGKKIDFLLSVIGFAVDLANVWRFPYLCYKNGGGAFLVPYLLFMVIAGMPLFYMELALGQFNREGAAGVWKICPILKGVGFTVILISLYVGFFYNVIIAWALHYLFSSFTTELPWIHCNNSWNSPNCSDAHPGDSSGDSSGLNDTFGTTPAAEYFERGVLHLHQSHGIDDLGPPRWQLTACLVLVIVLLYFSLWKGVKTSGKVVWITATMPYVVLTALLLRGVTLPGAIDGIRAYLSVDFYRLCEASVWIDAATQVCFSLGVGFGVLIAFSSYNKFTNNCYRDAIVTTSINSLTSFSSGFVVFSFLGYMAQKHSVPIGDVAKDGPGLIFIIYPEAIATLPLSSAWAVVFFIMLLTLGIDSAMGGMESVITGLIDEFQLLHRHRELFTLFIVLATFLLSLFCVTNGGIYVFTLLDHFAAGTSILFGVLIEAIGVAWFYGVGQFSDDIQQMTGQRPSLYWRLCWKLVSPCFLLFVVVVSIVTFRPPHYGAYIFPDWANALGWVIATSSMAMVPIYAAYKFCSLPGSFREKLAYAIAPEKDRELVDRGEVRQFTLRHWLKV
- protocol: Dopamine reuptake inhibition, [3H]-DA, HEK-293 cells transfected with dopamine transporter cDNA
- Assay type: cell-based
- measurement-context: concentration at which Ratio % is 50%; 6 concentrations 1 nM to 1 μM; read-out: Triple reuptake inhibition (IC50, μM) DAT
Note: every record was labeled by where its IC50 sits among low = under 0.9 µM, moderate = from 0.9 µM up to 2 µM, high = 2 µM and over

Worked set:
- compound: "O=S(=O)(NCCN1CCC(Cc2ccccc2)CC1)c1cccc2ccccc12 [Example 39]"
  assay-target: "dopamine transporter (DAT) (Homo sapiens, UniProt Q01959)"
  discrete-label: "moderate"
- compound: "CCCCOc1ccc(S(=O)(=O)NCCCN2CCC(Cc3ccc(F)cc3)CC2)cc1 [Example 32]"
  assay-target: "dopamine transporter (DAT) (Homo sapiens, UniProt Q01959)"
  discrete-label: "high"
- compound: "O=S(=O)(NCCCN1CCC(Cc2ccccc2)CC1)c1ccc(OC(F)(F)F)cc1 [Example 34]"
  assay-target: "dopamine transporter (DAT) (Homo sapiens, UniProt Q01959)"
  discrete-label: "moderate"
- compound: "COc1ccc(S(=O)(=O)NCCCN2CCC(Cc3ccccc3)CC2)cc1 [Example 14]"
  assay-target: "dopamine transporter (DAT) (Homo sapiens, UniProt Q01959)"
  discrete-label: "moderate"

Ask | Determine which band this compound sits in: O=S(=O)(NCCCN1CCC(Cc2ccccc2)CC1)c1cccc2ccccc12 [Example 55]
Reply | moderate
